Numbers sourced from patent EP2914280B1.

target: hDRD2 (Homo sapiens); experiment: cell-based;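 further: agonist activity at human DRD2 in DRD2-expressing cells, read as intracellular calcium mobilization with a FLIPR Calcium 4 fluorescent dye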
Sequence (P14416 whole entry): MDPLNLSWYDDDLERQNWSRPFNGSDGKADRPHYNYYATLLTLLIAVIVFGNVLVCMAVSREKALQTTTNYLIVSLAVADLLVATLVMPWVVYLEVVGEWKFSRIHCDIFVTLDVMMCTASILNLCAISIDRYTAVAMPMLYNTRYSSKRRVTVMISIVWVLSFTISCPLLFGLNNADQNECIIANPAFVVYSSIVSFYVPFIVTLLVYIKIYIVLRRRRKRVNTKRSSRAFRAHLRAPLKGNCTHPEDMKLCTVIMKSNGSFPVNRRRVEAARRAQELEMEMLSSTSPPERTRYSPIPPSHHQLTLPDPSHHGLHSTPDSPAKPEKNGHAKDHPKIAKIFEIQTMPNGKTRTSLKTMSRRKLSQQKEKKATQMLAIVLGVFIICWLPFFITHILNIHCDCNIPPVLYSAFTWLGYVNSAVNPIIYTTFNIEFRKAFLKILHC
Observation Type: EC50

Molecule	Observation Type	Result
C[C@@H](O)[C@@H]1NC(=O)[C@H](CCCCN)NC(=O)[C@@H](Cc2c[nH]c3ccccc23)NC(=O)[C@H](Cc2ccncc2)NC(=O)[C@H](Cc2ccccc2)NC(=O)[C@H](CCCNC(=N)N)NC(=O)[C@H](NC[C@H](Cc2ccc(O)cc2)NC(=O)C[S+]([O-])C[C@@H]2C[C@@H]3c4cccc5[nH]cc(c45)C[C@H]3N(C)C2)CCCCNC(=O)[C@H](Cc2ccccc2)NC1=O (some centres unmarked) [Compound 15]	EC50	7.4 nM
C[C@@H](O)[C@@H]1NC(=O)[C@H](CCCCN)NC(=O)[C@@H](Cc2c[nH]c3ccccc23)NC(=O)[C@H](Cc2ccncc2)NC(=O)[C@H](Cc2ccccc2)NC(=O)[C@H](CCCNC(=N)N)NC(=O)[C@H](NC[C@H](Cc2ccc(O)cc2)NC(=O)CS(=O)(=O)C[C@@H]2C[C@@H]3c4cccc5[nH]cc(c45)C[C@H]3N(C)C2)CCCCNC(=O)[C@H](Cc2ccccc2)NC1=O [Compound 21]	EC50	208 nM
